molecular target: recombinant GSK-3β enzyme (Homo sapiens); construct: FLAG (N); assay: GSK-3β inhibitory activity evaluation (Kinase Glo luminescence, recombinant enzyme); details: recombinant human GSK-3β 100 ng, glycogen synthase-derived substrate peptide, 2.5 μM ATP solution, 30 min room temperature
// values below are reported IC50

Query :: Please report the measured IC50 for O=C(NCc1ccccn1)Nc1cc(N2CC(CCc3ccccc3)CC2=O)ccn1 (centres unmarked) [Example 37]
Result :: < 100 nM

Query :: Provide one value: measured IC50 of O=C(NCc1ccc2c(c1)OCO2)Nc1cc(N2CC(c3ccccc3)CC2=O)ccn1 (centres unmarked) [Example 13]
Result :: 280 nM

###

biological target: recombinant GSK-3β enzyme (Homo sapiens); construct: FLAG (N); assay: GSK-3β inhibitory activity evaluation (Kinase Glo luminescence, recombinant enzyme); conditions: recombinant human GSK-3β 100 ng, glycogen synthase-derived substrate peptide, 2.5 μM ATP solution, 30 min room temperature
property.name: IC50 (nM)

{"columns": ["compound", "property.name", "numeric.readout"],
 "data": [
  ["O=C(NCc1cccnc1)Nc1cc(N2CC(c3ccccc3)CC2=O)ccn1 (centres unmarked) [Example 7]", "IC50", 190],
  ["O=C(CCc1ccccn1)Nc1cc(N2CC(c3ccccc3)OC2=O)ccn1 (centres unmarked) [Example 76]", "IC50", 160]
]}

###

molecular target: recombinant GSK-3β enzyme (Homo sapiens, UniProt P49841); construct: FLAG (N); test: GSK-3β inhibitory activity evaluation (Kinase Glo luminescence, recombinant enzyme); conditions: recombinant human GSK-3β 100 ng, glycogen synthase-derived substrate peptide, 2.5 μM ATP solution, 30 min room temperature
Sequence (P49841 whole entry): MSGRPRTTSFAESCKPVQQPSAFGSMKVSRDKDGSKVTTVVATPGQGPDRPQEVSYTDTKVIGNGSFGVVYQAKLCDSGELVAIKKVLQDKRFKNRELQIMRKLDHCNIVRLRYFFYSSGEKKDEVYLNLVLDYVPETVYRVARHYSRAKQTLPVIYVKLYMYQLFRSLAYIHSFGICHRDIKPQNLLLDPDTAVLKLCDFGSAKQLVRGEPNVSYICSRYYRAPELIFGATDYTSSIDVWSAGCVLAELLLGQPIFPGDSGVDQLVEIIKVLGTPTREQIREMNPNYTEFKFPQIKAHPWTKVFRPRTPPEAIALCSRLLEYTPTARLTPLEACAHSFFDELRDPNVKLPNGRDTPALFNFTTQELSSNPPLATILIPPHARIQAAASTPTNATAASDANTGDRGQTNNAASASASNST
property.name: IC50 (nM)

{"columns": ["compound", "property.name", "numeric.readout"],
 "data": [
  ["O=C(NCc1ccccn1)Nc1cc(N2CC(c3cccc(C(F)(F)F)c3)CC2=O)ccn1 (centres unmarked) [Example 25]", "IC50", 100]
]}

(A) COc1ccc(C2CC(=O)N(c3ccnc(NC(=O)NCc4ccccn4)c3)C2)cc1 (centres unmarked) [Example 21]
(B) O=C(Cc1cccs1)Nc1cc(N2CC(c3ccccc3)OC2=O)ccn1 (centres unmarked) [Example 79]
Query :: Would you kindly point out which of A and B has the smaller IC50 figure? // caller expects the label of the chosen entry
Result :: A

###

target: recombinant GSK-3β enzyme (Homo sapiens); construct: FLAG (N); assay: GSK-3β inhibitory activity evaluation (Kinase Glo luminescence, recombinant enzyme); conditions: recombinant human GSK-3β 100 ng, glycogen synthase-derived substrate peptide, 2.5 μM ATP solution, 30 min room temperature
pIC50: −log10 of the molar value.
property.name: pIC50

{"columns": ["molecule", "tested.system", "pIC50"],
 "data": [
  ["O=C(NCc1ccccn1)Nc1cc(N2CC(CCc3ccccc3)OC2=O)ccn1 (stereo not drawn)", "recombinant GSK-3β enzyme (Homo sapiens)", "> 7.00"],
  ["O=C(NCc1ccccn1)Nc1cc(-n2c(=O)oc3ccccc32)ccn1", "recombinant GSK-3β enzyme (Homo sapiens)", "> 7.00"],
  ["O=C(NCc1ccccn1)Nc1cc(N2CC(COCc3ccccc3)OC2=O)ccn1 (stereo not drawn)", "recombinant GSK-3β enzyme (Homo sapiens)", "> 7.00"],
  ["O=C(CCc1ccccn1)Nc1cc(N2CC(c3ccccc3)CC2=O)ccn1 (stereo not drawn)", "recombinant GSK-3β enzyme (Homo sapiens)", 6.66]
]}

Query :: Item O=C(NCc1ccccn1)Nc1cc(N2CC(c3cccs3)OC2=O)ccn1 (stereo not drawn) : provide pIC50
Result :: > 7.00

Query :: Quick one: give measured pIC50 for O=C(CCc1cccnc1)Nc1cc(N2CC(c3ccccc3)OC2=O)ccn1 (stereo not drawn)
Result :: 6.72

Query :: Return reported pIC50. Input molecule: Cc1ccc2oc(=O)n(-c3ccnc(NC(=O)NCc4ccccn4)c3)c2c1
Result :: > 7.00

Query :: Fill in pIC50 for record CC1(C)C(=O)N(c2ccnc(NC(=O)NCc3ccccn3)c2)c2cccnc21
Result :: > 7.00

Query :: Specify measured pIC50 for O=C(CCc1nc2ccccc2s1)Nc1cc(N2CC(c3ccccc3)OC2=O)ccn1 (stereo not drawn) .
Result :: > 7.00

Ref: patent US20110039893A1
